Test: Cell Viability - LYMP2-020 (AID 986);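 also: cells exposed to compound for 24 h at 37 °C; nearly all actives have a fitted effect of over 55% in size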
Settings: series mostly up to 92.2 µM
Records with an inconclusive call do not appear. Active and inactive are the calls of the source. Calls follow the shape of the dose curve; as a rule, active = well fitted cell-killing curve with a large enough effect; inconclusive = small, poorly fitted or top-dose-only effect; inactive = flat fitted curve, though single readings scatter.
Pick from true (1) for active, false (0) for inactive when you respond.

Reference set, count: 6
Compound	Label Class
ClC1=C(Cl)C2(Cl)C3C4C=CC(C4)C3C1(Cl)C2(Cl)Cl (stereo unspecified)	true (1)
Clc1nc(Cl)nc(Cl)n1	false (0)
O=[N+]([O-])c1ccc(Cl)c(Cl)c1	false (0)
C=CC(=O)OCC	false (0)
Brc1ccc(Oc2cc(Br)c(Br)cc2Br)c(Br)c1	false (0)
Cc1cccc(C#N)c1	false (0)

Query string: Record request — test call for `CC(C)(C)OOC(C)(C)C`
Result string: false (0)

Query string: // next record `CCCC(=O)Cl`
Result string: false (0)

Query string: // next record `c1ccc2c(c1)CCCC2`
Result string: false (0)

====

Assay: qHTS Assay for Lipid Storage Modulators (AID 1519)
Conditions: Drosophila S3 cells, BODIPY lipid droplet/cell ratio, laser cytometry; measured here: lipid channel max response; cells loaded with oleic acid
Inconclusive results are not listed.
Overview of recorded max response for various compounds
Write the value in % as a bare number.

Past entries and their recorded results:
Compound	Numeric Result
O=C1NC(=O)C(=O)C(=O)N1	19.9
O=C(Oc1ccccc1)N1CCC2(CCN(Cc3ccccc3)CC2)CC1	6.48
CN1[C@@H]2CC(OC(=O)[C@H](CO)c3ccccc3)C[C@@H]1[C@H]1O[C@H]12 (some centres undefined)	-4.12
CC[N@+]1(C)CCC[C@@H](OC(=O)C(O)(c2ccccc2)c2ccccc2)C1	-5.77
C[N+]1(C)CCO[C@](O)(c2ccc(-c3ccc([C@]4(O)C[N+](C)(C)CCO4)cc3)cc2)C1	5.83

Query string: # get_value(readout='max response', item= `S=C=NCc1ccccc1` )
Result string: 0.435

Query string: // next record `CNC(=O)O/N=C(/C)SC`
Result string: 20.1

Query string: // next record `C=C1C/C(=C\C)C(=O)O[C@@H]2CCN3CC=C(COC(=O)[C@@]1(C)O)[C@H]23`
Result string: 10.5

Query string: // next record C[C@@]12CC(c3ccoc3)OC(=O)C1CC[C@@]1(C)C2C2C=C[C@@]1(O)C(=O)O2 (some centres undefined)
Result string: 26.2

Query string: // next record COc1cc2c(cc1OC)C(C)NCC2 (centres undefined)
Result string: 26

Query string: // next record CC1(C)N([O-])[N+](=O)C1(C)Br (centres undefined)
Result string: -5.74

Query string: // next record O=c1cccc2n1CC1CNCC2C1 (centres undefined)
Result string: 18

Query string: // next record COc1cc2c(c(OC)c1OC)-c1ccc(OC)c(=O)cc1C(NC(C)=O)CC2 (centres undefined)
Result string: 20.2

Query string: // next record `N#Cc1ccc(CN2CC[C@@]3(CCCN(C(=O)Oc4ccccc4)C3)C2)cc1`
Result string: 28.4

====

Assay: MultiTox-Fluor Cytotoxicity Assay - LYMP1-002 - Dead Cells (AID 960);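 also: cells exposed to compound for 16 h at 37 °C; 0% = DMSO and 100% = tetraoctylammonium bromide; nearly all actives have a fitted effect of over 60% in size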
Conditions: LYMP1-002 lymphoblastoid cells, dead-cell protease fluorescence; series mostly up to 46.1 µM
Results filed as inconclusive are left out. Active and inactive are the calls of the source. The call rests on the fitted dose curve; in most records, active means well fitted cell-killing curve with a large enough effect; inconclusive means small, poorly fitted or top-dose-only effect, or effect the other way; inactive means no such curve, though single readings can be large or run the other way.
Pick from T = active, F = inactive when you respond.

Reference set, count: 4
Molecule	Label Class
O=[N+]([O-])c1cccc2ccccc12	F
S=C=Nc1cccc2ccccc12	F
COC1=CC(=O)OC(CCc2ccccc2)C1 (stereo not given)	F
COC1=CC(=O)O[C@@H](/C=C/c2ccc3c(c2)OCO3)C1	F

Query string: Record request — test call for CC(O)CCl (stereo not given)
Result string: F

Query string: // next record `C=CC(C)=O`
Result string: F

Query string: // next record `O=NN(c1ccccc1)c1ccccc1`
Result string: F

Query string: // next record `ClC(Cl)=C(Cl)C(Cl)=C(Cl)Cl`
Result string: F

====

Test system: CP329
Assay: qHTS profiling for inhibitors of Plasmodium falciparum proliferation (AID 504749); also: nearly all actives have a fitted effect of over 60% in size
Settings: P. falciparum in erythrocytes, SYBR Green DNA, 72 h; series mostly up to 28.7 µM
Results filed as inconclusive are left out. Activity calls are given as the source filed them. Calls come from the whole dose curve; as a rule, active = well fitted inhibition curve with a large enough effect; inconclusive = small, poorly fitted or top-dose-only effect; inactive = flat fitted curve, though single readings scatter.
Pick from true = active, false = inactive when you respond.

Compound	Label Class
Oc1ccc2c3c1O[C@H]1[C@@H](O)CC[C@@]4(O)C(C2)N(CC2CCC2)CCC314 (stereo not given in full)	false

--- query ---
Query string: Record request — test call for `CO[C@@H](COC(N)=O)C1=C(N2CC2)C(=O)C(C)=C(N2CC2)C1=O`
Result string: true

====

Experiment: qHTS for differential inhibitors of proliferation of Plasmodium falciparum line 3D7 (AID 1876)
Settings: P. falciparum 3D7 proliferation inhibition; series mostly up to 28.7 µM
Inconclusive results are not listed. The source made the active and inactive calls. Calls follow the shape of the dose curve; as a rule, active = well fitted curve in the direction sought with a large enough effect; inconclusive = small, poorly fitted or top-dose-only effect, or another doubt; inactive = no such curve, though single readings can be large or run the other way.
Pick from yes (1) (active), no (0) (inactive) when you respond.

Compound	Label Class
O=C(OC1CCN(CCCl)CC1)C(c1ccccc1)c1ccccc1	yes (1)
C[C@]12CC[C@@H](O)CC1CCC1C2CC[C@]2(C)C(=O)CC[C@@H]12 (stereo not given in full)	no (0)
COc1cc(C[C@@H](C)N)c(OC)cc1I	no (0)
CC(C)[C@@]1(NC(=O)[C@@H]2C[C@@H]3c4cccc5[nH]cc(c45)C[C@H]3N(C)C2)O[C@@]2(O)C3CCCN3C(=O)[C@H](Cc3ccccc3)N2C1=O (stereo not given in full)	yes (1)

Query string: Record request — test call for C[C@]12C=CC(=O)C=C1CCC1C2=CC[C@]2(C)[C@@H](C(=O)CN3CCN(c4cc(N5CCCC5)nc(N5CCCC5)n4)CC3)CC[C@@H]12 (stereo not given in full)
Result string: yes (1)

Query string: // next record `CCCN(CCC)[C@@H]1CCc2c(F)ccc(O)c2C1`
Result string: yes (1)

Query string: // next record COc1ccc2c(c1O)-c1cccc3c1C(C2)N(C)CC3 (stereo not given)
Result string: yes (1)

Query string: // next record C[C@]12CC[C@H](O)CC1=CCC1C2CC[C@]2(C)C(=O)CC[C@@H]12 (stereo not given in full)
Result string: no (0)

Query string: // next record `CCN1C[C@]2(C)CC[C@H](O)[C@@]34[C@@H]5C[C@@H]6[C@@H](OC)C[C@@](O)(C5[C@H]6O)[C@@H](C[C@@H]23)[C@@H]14`
Result string: no (0)

Query string: // next record `CCNC(=O)[C@H]1O[C@@H](n2cnc3c(N)ncnc32)[C@H](O)[C@H]1O`
Result string: no (0)

Query string: // next record C[C@]12CC[C@H](OS(=O)(=O)O)CC1=CCC1C2CC[C@]2(C)C(=O)CC[C@@H]12 (stereo not given in full)
Result string: no (0)

Query string: // next record `CCc1c(C(=O)OC)ncc2[nH]c3cc(OC)c(OC)cc3c12`
Result string: yes (1)

====

Target: Rap guanine nucleotide exchange factor 4 (Homo sapiens) (UniProt Q8WZA2)
Sequence (Q8WZA2 whole entry, looked up): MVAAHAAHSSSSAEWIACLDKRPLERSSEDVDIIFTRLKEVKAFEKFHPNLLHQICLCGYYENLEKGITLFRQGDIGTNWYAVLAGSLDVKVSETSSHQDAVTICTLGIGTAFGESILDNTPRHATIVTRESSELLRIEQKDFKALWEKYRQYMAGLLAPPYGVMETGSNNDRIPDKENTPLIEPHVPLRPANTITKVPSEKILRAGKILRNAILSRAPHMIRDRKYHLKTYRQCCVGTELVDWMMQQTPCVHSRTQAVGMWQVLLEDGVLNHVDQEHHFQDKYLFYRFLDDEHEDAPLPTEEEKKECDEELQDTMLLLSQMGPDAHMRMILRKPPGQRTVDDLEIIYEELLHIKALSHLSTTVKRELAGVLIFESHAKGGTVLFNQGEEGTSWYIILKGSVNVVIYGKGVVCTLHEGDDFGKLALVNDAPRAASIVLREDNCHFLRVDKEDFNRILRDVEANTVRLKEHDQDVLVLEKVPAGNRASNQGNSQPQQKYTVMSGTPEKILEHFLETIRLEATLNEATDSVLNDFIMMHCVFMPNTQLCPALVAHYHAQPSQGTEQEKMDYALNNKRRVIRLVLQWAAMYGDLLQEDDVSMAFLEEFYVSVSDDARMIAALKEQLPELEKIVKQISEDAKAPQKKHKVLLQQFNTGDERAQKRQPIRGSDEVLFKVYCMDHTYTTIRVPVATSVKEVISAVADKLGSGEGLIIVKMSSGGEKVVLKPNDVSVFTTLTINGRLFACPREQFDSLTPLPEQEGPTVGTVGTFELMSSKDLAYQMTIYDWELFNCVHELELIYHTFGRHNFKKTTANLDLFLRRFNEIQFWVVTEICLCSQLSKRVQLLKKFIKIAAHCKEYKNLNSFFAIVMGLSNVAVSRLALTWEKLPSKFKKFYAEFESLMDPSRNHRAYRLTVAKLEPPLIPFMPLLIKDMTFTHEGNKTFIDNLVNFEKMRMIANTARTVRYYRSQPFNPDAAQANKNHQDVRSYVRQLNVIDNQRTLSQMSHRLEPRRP
Assay: Confirmatory qHTS for antagonist of cAMP-regulated guanine nucleotide exchange factor 4 (EPAC2) (AID 1645885); also: % is scaled to controls: 0 for no effect and ±100 for the full control effect; nearly all actives have a fitted effect of over 25% in size
Settings: EPAC2 Rap1B-BODIPY-GDP exchange fluorescence, biochemical; series mostly up to 114 µM
Records with an inconclusive call do not appear. The source made the active and inactive calls. Calls follow the shape of the dose curve; as a rule, active = well fitted inhibition curve with a large enough effect; inconclusive = small, poorly fitted or top-dose-only effect; inactive = no such curve, though single readings can be large or run the other way.
Readout Name: activity change, negative = inhibition

Past entries and their recorded results:
Smiles Data	Study System	Readout Name	Result
Nc1c(Br)cc2c3c(cccc13)-c1ccccc1-2	Rap guanine nucleotide exchange factor 4 (Homo sapiens) (UniProt Q8WZA2)	activity change, negative = inhibition	2.51% [at 12.7 µM] (inactive)
O=C1NC(=O)N(Cc2ccco2)C(=O)/C1=C\c1ccc(-c2ccc(F)cc2)o1	Rap guanine nucleotide exchange factor 4 (Homo sapiens) (UniProt Q8WZA2)	activity change, negative = inhibition	-6.14% [at 12.7 µM] (inactive)
CCOC(=O)c1c(-c2ccccc2)oc2ccc(OC(=O)N(C)C)cc12	Rap guanine nucleotide exchange factor 4 (Homo sapiens) (UniProt Q8WZA2)	activity change, negative = inhibition	inactive
Cc1cc(/C=C2\C(=O)NC(=O)N(Cc3ccccc3Cl)C2=O)c(C)n1-c1ccc(C(=O)O)cc1	Rap guanine nucleotide exchange factor 4 (Homo sapiens) (UniProt Q8WZA2)	activity change, negative = inhibition	-6.02% [at 12.7 µM] (inactive)
O=C1C=CC(=O)c2c(O)cccc21	Rap guanine nucleotide exchange factor 4 (Homo sapiens) (UniProt Q8WZA2)	activity change, negative = inhibition	inactive
Cc1ccc(N2C(=O)NC(=O)/C(=C\C=C\c3ccco3)C2=O)cc1	Rap guanine nucleotide exchange factor 4 (Homo sapiens) (UniProt Q8WZA2)	activity change, negative = inhibition	inactive
CN1C(=O)/C(=C/c2cccn2-c2ccc3ccccc3c2)C(=O)NC1=S	Rap guanine nucleotide exchange factor 4 (Homo sapiens) (UniProt Q8WZA2)	activity change, negative = inhibition	inactive
COc1ccc(-n2c(/C=C/c3ccc(O)c(O)c3)nc3ccccc3c2=O)cc1	Rap guanine nucleotide exchange factor 4 (Homo sapiens) (UniProt Q8WZA2)	activity change, negative = inhibition	inactive

Query string: # get_value(readout='activity change, negative = inhibition', item= `COc1ccc(-n2c(O)c(/C=C3\C=Nc4ccc(Br)cc43)c(=O)[nH]c2=O)c(OC)c1` )
Result string: inactive

Query string: // next record `COc1ccc(N2C(=O)/C(=C/C=C/c3ccccc3[N+](=O)[O-])C(=O)NC2=S)cc1`
Result string: 0.334% [at 12.7 µM] (inactive)

Query string: // next record `CCN1C(=O)C(=C/C=C/c2ccco2)C(=O)N(CC)C1=S`
Result string: inactive

Query string: // next record `CCN1/C(=C/C=C/C2=[N+](CC)c3ccccc3C2(C)C)C(C)(C)c2ccccc21`
Result string: inactive

Query string: // next record `O=C1NC(=O)N(Cc2ccccc2)C(=O)/C1=C\c1ccco1`
Result string: 4.49% [at 12.7 µM] (inactive)

Query string: // next record `NC(=O)c1ccc(N=Cc2c(O)n(Cc3ccco3)c(=O)[nH]c2=O)cc1`
Result string: inactive

Query string: // next record `CCCSc1nc2ccccc2c(=O)n1-c1ccccc1OC`
Result string: 34.1% [at 12.7 µM] (inactive)
